# assay-name: Drug concentration in SCID mouse plasma at 30 mg/kg, po administered daily for 3 days and measured after 24 hrs by LC-MS/MS analysis
# Assay type: ADME, organism-based

- molecule-smiles: "O=C1CC[C@H](N2Cc3c(ccc4c3OCC43CCN(C[C@@H]4CCC5(CCN(c6ccc([C@@H]7c8ccc(O)cc8CC[C@@H]7c7ccccc7)cc6)CC5)OC4)CC3)C2=O)C(=O)N1"
  concentration at 96 h / ng/mL: 50

====

# assay-target: Protein cereblon/Estrogen receptor (Homo sapiens, UniProt P03372+Q96SW2)
# Sequence (P03372 whole entry, looked up): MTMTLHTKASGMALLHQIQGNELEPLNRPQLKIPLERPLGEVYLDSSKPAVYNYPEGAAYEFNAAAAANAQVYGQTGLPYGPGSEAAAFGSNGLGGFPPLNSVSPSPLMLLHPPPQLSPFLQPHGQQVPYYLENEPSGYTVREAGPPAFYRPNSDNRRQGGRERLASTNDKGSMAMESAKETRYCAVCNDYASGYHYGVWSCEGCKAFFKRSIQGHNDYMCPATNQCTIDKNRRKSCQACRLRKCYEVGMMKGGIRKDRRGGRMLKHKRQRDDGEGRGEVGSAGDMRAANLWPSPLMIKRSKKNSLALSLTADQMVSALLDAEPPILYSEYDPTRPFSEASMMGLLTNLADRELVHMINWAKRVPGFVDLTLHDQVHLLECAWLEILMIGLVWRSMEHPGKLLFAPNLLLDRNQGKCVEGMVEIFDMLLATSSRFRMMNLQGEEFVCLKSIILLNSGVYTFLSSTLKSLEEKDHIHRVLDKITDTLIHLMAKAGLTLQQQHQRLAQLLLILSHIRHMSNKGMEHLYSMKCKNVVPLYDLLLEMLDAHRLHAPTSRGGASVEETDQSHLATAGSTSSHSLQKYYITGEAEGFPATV
# Sequence (Q96SW2 whole entry, looked up): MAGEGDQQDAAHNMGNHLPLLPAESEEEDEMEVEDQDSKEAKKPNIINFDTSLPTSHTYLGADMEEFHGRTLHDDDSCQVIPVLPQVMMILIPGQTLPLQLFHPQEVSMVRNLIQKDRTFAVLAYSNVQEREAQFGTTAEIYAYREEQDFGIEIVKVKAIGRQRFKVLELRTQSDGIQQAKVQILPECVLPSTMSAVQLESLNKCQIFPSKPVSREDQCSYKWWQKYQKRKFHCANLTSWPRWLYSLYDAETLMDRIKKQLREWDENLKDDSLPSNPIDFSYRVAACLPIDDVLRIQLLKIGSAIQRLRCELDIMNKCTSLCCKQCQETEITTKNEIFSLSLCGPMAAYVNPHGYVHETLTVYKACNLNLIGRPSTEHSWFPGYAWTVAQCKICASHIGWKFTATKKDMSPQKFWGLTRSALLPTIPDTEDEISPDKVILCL
# assay-name: PROTAC activity at CRBN/wild type ERalpha in human T47D cells assessed as reduction in ERalpha protein level at 10 to 100 nM measured at 7 hrs by Western blot analysis
# Assay type: cell-based
# test-settings: dose 10-100 nM
Calls of active or inactive are those of the source. The rule behind the calls is not given here.
Outcomes: y (active), n (inactive)

- molecule-smiles: "CN1C(=O)CC[C@H](N2Cc3c(ccc4c3OCC43CCN(C[C@@H]4CCC5(CCN(c6ccc([C@@H]7c8ccc(O)cc8CC[C@@H]7c7ccccc7)cc6)CC5)OC4)CC3)C2=O)C1=O"
  assay-target: "Protein cereblon/Estrogen receptor (Homo sapiens, UniProt P03372+Q96SW2)"
  assigned-class: "n"
- molecule-smiles: "CN(C)C[C@@H]1CCC2(CCN(c3ccc([C@@H]4c5ccc(O)cc5CC[C@@H]4c4ccccc4)cc3)CC2)OC1"
  assay-target: "Protein cereblon/Estrogen receptor (Homo sapiens, UniProt P03372+Q96SW2)"
  assigned-class: "n"
- molecule-smiles: "Oc1ccc2c(c1)CC[C@H](c1ccccc1)[C@@H]2c1ccc(OCCN2CCCC2)cc1"
  assay-target: "Protein cereblon/Estrogen receptor (Homo sapiens, UniProt P03372+Q96SW2)"
  assigned-class: "n"
- molecule-smiles: "CCNCCc1ccc(CN(CC)c2cc(OC)ccc2[C@@H]2CCc3cc(O)ccc3C2)cc1"
  assay-target: "Protein cereblon/Estrogen receptor (Homo sapiens, UniProt P03372+Q96SW2)"
  assigned-class: "y"
- molecule-smiles: "O=C1CC[C@H](N2Cc3c(ccc4c3OCC43CCN(C[C@@H]4CCC5(CCN(c6ccc([C@@H]7c8ccc(O)cc8CC[C@@H]7c7ccccc7)cc6)CC5)OC4)CC3)C2=O)C(=O)N1"
  assay-target: "Protein cereblon/Estrogen receptor (Homo sapiens, UniProt P03372+Q96SW2)"
  assigned-class: "y"

====

# assay-target: Estrogen receptor (Homo sapiens)
# Sequence (P03372 whole entry): as the sequence (P03372 whole entry, looked up) above

- molecule-smiles: "O=C1CC[C@H](N2Cc3c(ccc4c3OCC43CCN(C[C@@H]4CCC5(CCN(c6ccc([C@@H]7c8ccc(O)cc8CC[C@@H]7c7ccccc7)cc6)CC5)OC4)CC3)C2=O)C(=O)N1"
  assay-target: "Estrogen receptor (Homo sapiens)"
  Ki: "0.95 nM"

====

# assay-name: Drug concentration in SCID mouse tumor at 10 mg/kg, po administered once daily for 3 days measured after 24 hrs by LC-MS/MS analysis
# Assay type: ADME, organism-based, Neoplasm

- molecule-smiles: "O=C1CC[C@H](N2Cc3c(ccc4c3OCC43CCN(C[C@@H]4CCC5(CCN(c6ccc([C@@H]7c8ccc(O)cc8CC[C@@H]7c7ccccc7)cc6)CC5)OC4)CC3)C2=O)C(=O)N1"
  result-unit: "ng/mL"
  concentration at 96 h: 294

====

# assay-name: Drug concentration in SCID mouse plasma at 30 mg/kg, po administered once daily for 3 days measured after 24 hrs by LC-MS/MS analysis
# Format: ADME, organism-based
measurement-kind: concentration at 96 h (ng/mL)

- molecule-smiles: "O=C1CC[C@H](N2Cc3c(ccc4c3OCC43CCN(C[C@@H]4CCC5(CCN(c6ccc([C@@H]7c8ccc(O)cc8CC[C@@H]7c7ccccc7)cc6)CC5)OC4)CC3)C2=O)C(=O)N1"
  reported-result: 72
